TESTED_TARGET: Rap guanine nucleotide exchange factor 3 (Homo sapiens)
PROTOCOL_NOTES: Counterscreen qHTS for antagonist of cAMP-regulated guanine nucleotide exchange factor 3 (EPAC1) (AID 1645888);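 note: fluorescence loss as bound BODIPY-GDP is released from Rap1B; % of control where 0% means no effect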
DETAILS: Rap1B-BODIPY-GDP nucleotide exchange, fluorescence; series mostly up to 154 µM
Inconclusive results are not listed. The source made the active and inactive calls. Calls come from the whole dose curve; as a rule, active = well fitted inhibition curve with a large enough effect; inconclusive = small, poorly fitted or top-dose-only effect; inactive = no such curve, though single readings can be large or run the other way.
ASSAY_ENDPOINT: activity change, negative = inhibition

[
  {
    "COMPOUND": "O=C(N/N=C/c1ccc(F)cc1)c1cc(-c2ccco2)nc2ccccc12",
    "activity change, negative = inhibition": "inactive"
  },
  {
    "COMPOUND": "COc1ccc(/C=C2/SC(=S)N(NS(=O)(=O)c3ccccc3)C2=O)cc1",
    "activity change, negative = inhibition": "-9.92% [at 30.8 µM] (inactive)"
  },
  {
    "COMPOUND": "Cc1cccc(C)c1Nc1c(-c2ccccc2F)nc2cccc(C)n12",
    "activity change, negative = inhibition": "inactive"
  },
  {
    "COMPOUND": "Cc1ccc(-n2nc(C(=O)N(C)c3ccc(C)c(C)c3)c3c4ccccc4n(C)c3c2=O)cc1",
    "activity change, negative = inhibition": "inactive"
  },
  {
    "COMPOUND": "C[C@H]1CN([C@@H](C)CO)C(=O)c2cccc(NS(=O)(=O)c3ccc(Cl)cc3)c2O[C@@H]1CN(C)CC1CCCCC1",
    "activity change, negative = inhibition": "0.127% [at 30.8 µM] (inactive)"
  }
]

List activity change, negative = inhibition for every entry below, keeping the order given.
1. O=C(NCc1ccco1)c1c[nH]c2ccc(S(=O)(=O)N3CCOCC3)cc2c1=O
2. O=C(c1ccc2c(c1)N(Cc1ccccc1)CCS2)N1CCCCC1
3. Cc1ccc(S(=O)(=O)Nc2cc(=O)[nH]c(SCC(=O)Nc3cccc(C)c3)n2)cc1
4. Nc1nc2c(ncn2[C@@H]2O[C@H](CNCc3ccccc3)[C@@H](O)[C@H]2O)c(=O)[nH]1

a:
1: 1.66% [at 30.8 µM] (inactive); 2: inactive; 3: -4.46% [at 30.8 µM] (inactive); 4: inactive

List activity change, negative = inhibition for every entry below, keeping the order given.
1. O=C1NC(=Nc2ccccc2Cl)S/C1=C\c1cc([N+](=O)[O-])ccc1O
2. Cc1ccc2c(c1)c1c3n2CCN(C(=O)C2CC2)C3CCC1 (stereo unspecified)
3. COCCN(C)Cc1nc(C(c2ccccc2)c2ccccc2)no1
4. COc1ccc(-c2oc3cccnc3c2C#CCO)cc1
5. CCOc1ccc(S(=O)(=O)N2CCCCC2)c2ccccc12

a:
1: inactive; 2: inactive; 3: inactive; 4: inactive; 5: inactive

List activity change, negative = inhibition for every entry below, keeping the order given.
1. CN1C(=O)C2(C(C#N)=C(N)N(c3cc(Cl)cc(Cl)c3)C3=C2C(=O)CC(C)(C)C3)c2ccccc21 (stereo unspecified)
2. COc1ccc(Br)cc1CNC(=O)c1ccc2nc(C(C)C)oc2c1
3. COC(=O)C(C)N(C(=O)c1ccc(Cl)cc1)c1c(C)cccc1C (stereo unspecified)
4. Clc1ccc(NCc2nc3ccccc3n2CCOc2ccccc2)cc1
5. CCOC(=O)Cn1c(-c2cccs2)cc2cc(Cl)ccc21
6. CCOC(=O)C(Cc1ccc(NC(=O)/C(=C\c2ccccc2)NC(=O)c2ccccc2)cc1)N1C(=O)c2ccccc2C1=O (stereo unspecified)
7. COc1ccc(NC(=O)c2ccc3c(SCC(=O)O)c4c(nc3c2)CCCC4)c(OC)c1

a:
["inactive", "inactive", "inactive", "inactive", "inactive", "inactive", "inactive"]
